The reported numbers originate from the supplement of paper PMC10065799.

Form field: phosphorylation enrichment (one value per entry).
Biological target: Fes (UniProt P07332)
Sequence (P07332 whole entry, looked up): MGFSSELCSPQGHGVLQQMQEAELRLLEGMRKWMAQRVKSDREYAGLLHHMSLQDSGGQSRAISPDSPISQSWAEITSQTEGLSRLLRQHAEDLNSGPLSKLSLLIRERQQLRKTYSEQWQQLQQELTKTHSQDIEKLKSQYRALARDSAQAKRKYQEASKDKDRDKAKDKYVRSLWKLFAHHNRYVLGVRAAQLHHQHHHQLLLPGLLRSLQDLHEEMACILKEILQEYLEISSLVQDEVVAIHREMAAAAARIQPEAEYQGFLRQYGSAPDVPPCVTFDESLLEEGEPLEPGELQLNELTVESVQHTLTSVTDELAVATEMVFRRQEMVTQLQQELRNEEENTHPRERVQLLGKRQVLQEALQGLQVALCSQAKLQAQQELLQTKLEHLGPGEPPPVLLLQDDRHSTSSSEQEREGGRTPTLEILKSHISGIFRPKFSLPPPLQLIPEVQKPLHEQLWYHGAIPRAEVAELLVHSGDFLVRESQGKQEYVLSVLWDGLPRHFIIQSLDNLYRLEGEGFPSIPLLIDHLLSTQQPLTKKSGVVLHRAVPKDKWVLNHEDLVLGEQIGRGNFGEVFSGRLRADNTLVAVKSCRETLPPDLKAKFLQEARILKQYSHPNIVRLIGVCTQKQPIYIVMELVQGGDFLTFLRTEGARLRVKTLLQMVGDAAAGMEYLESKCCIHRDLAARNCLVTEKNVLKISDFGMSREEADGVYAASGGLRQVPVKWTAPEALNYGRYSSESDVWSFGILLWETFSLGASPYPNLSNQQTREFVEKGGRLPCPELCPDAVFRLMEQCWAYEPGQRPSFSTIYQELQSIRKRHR
Experiment: phosphorylation enrichment, bacterial display (enrichment ratio); higher = better substrate or ligand; peptides without Tyr show the background
Enter the number alone.

Solved entries (count: 5):
SMGHRYIEVFK [HNRNPF_Y82] | 1
SGTFQYIIAKF [FOXL2_Y83_I80T_YF] | 1.27
HNLFSYPTKFE [MYO3A_Y1396_H1400Y_YF] | 1.29
RQGQAYRGQRV [TSHR_Y706_A703G] | 0.805
AHARMYGVLPW [PLP1_Y207_D203H] | 0.617

The record that follows has no phosphorylation enrichment shown yet.
The sequence IVFVICDEVVK [SLC25A1_Y297_Y297C] , when measured on Fes (UniProt P07332), yielded phosphorylation enrichment of 1.25

====

Molecular target: FGFR3 (UniProt P22607)
Sequence (P22607 whole entry, looked up): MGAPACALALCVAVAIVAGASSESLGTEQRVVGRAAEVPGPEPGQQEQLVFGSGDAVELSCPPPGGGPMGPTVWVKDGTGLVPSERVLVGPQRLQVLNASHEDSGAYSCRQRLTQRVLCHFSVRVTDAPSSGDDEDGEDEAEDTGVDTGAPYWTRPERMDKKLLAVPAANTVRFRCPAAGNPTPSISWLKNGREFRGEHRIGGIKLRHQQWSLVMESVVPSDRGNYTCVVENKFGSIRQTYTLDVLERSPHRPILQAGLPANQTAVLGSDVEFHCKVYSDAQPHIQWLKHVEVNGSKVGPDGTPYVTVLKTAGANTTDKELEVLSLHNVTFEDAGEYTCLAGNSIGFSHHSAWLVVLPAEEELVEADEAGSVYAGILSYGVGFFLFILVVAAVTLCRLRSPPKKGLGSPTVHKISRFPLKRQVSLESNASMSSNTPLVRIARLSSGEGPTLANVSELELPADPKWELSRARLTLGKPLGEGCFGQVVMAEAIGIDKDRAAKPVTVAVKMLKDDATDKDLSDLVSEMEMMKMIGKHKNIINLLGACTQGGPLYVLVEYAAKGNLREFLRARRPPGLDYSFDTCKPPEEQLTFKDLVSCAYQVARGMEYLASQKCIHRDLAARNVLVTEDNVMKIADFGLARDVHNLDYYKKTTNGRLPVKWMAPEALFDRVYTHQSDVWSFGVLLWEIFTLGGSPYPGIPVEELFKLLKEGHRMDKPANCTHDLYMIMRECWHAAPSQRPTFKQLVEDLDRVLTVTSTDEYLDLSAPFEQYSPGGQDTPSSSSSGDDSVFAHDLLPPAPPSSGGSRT
Test: phosphorylation enrichment, bacterial display (enrichment ratio); higher = better substrate or ligand; peptides without Tyr show the background
reported_property: phosphorylation enrichment
Enter the number alone.

Solved entries (count: 5):
DYTEAYNSKIK [CLK1_Y305_P307S] | 0.585
MQMEEYRGRVE [BTNL2_Y91_W94R] | 0.539
TGYRPYVCPFD [YY1_Y383_D380Y] | 0.951
TFLRTYTDTMQ [TSPAN7_Y124_A127T] | 0.497
RRGTGYTLSLP [MAGEC3_Y152] | 0.643

Kindly note the recorded phosphorylation enrichment for ILNANCMAKRL [GLDC_Y839_Y839C] , which is 0.403

Kindly note the recorded phosphorylation enrichment for WAFNLYDINKY [KCNIP3_Y174_D179Y] , which is 0.725

====

Molecular target: Grb2 SH2 (UniProt P62993)
Sequence (P62993 whole entry, looked up): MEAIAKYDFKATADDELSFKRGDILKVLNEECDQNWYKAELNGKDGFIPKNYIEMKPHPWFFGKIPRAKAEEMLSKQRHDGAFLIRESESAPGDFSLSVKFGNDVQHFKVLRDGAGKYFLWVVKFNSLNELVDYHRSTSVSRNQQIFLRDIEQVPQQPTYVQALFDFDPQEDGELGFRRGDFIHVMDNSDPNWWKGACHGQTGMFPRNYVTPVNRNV
Experiment: SH2 binding enrichment of the phosphorylated peptide, bacterial display (enrichment ratio); higher = better substrate or ligand; peptides without Tyr show the background
reported_property: SH2 binding enrichment
Enter the number alone.

EVRTQYEEIAQ [KRT76_Y361_A359T] | 0.882
FSNPAYYVLEG [INPPL1_Y986_N982S] | 0.918

The record that follows has no SH2 binding enrichment shown yet.
Kindly note the recorded SH2 binding enrichment for FTYDPYSEEEP [IL2RB_Y387_D391E] , which is 0.92

====

Target: FGFR3 (UniProt P22607)
Test: phosphorylation enrichment, bacterial display (enrichment ratio); higher = better substrate or ligand; peptides without Tyr show the background
Form field: phosphorylation enrichment (one value per entry).
Enter the number alone.

AEPTGYSAELS [EZR_Y499] | 0.636
LIHTKYPQLLP [AHCY_Y143] | 0.573
RCNHPYLINGA [CHD7_Y1256_C1251R] | 0.569
SWDKRYCEAGC [ITGA2B_Y197_F202C] | 0.541

Kindly note the recorded phosphorylation enrichment for KNKKDYYDMYE [SLC26A3_Y526] , which is 4.04

Kindly note the recorded phosphorylation enrichment for SGPRRYTIATL [TTR_Y125_A129T] , which is 0.398

Kindly note the recorded phosphorylation enrichment for ILTFKYLQKPM [KIT_Y547_YF] , which is 0.742

Kindly note the recorded phosphorylation enrichment for FQCLRYIKQLG [SAMHD1_Y146_R143C] , which is 0.596

Kindly note the recorded phosphorylation enrichment for KFLENYFDLKK [MMP3_Y41_YF] , which is 1.75

Kindly note the recorded phosphorylation enrichment for FIRKDYEACKA [BBS4_Y48_YF] , which is 0.592

Kindly note the recorded phosphorylation enrichment for RDHYGYRQSVT [CD55_Y245] , which is 0.339

Kindly note the recorded phosphorylation enrichment for ELELLYLDRNS [NYX_Y284] , which is 0.634

Kindly note the recorded phosphorylation enrichment for VRALTYCDLHK [KCNH2_Y827] , which is 0.591

Kindly note the recorded phosphorylation enrichment for RQGQAYRGQRV [TSHR_Y706_A703G] , which is 0.447
